Source of measurements: patent US20140147444A1

SYSTEM UNDER TEST: T1, human OPGbp [143-317] (human, UniProt O14788 143-317)
T1 construct: also called OPGL
T1 sequence (looked up): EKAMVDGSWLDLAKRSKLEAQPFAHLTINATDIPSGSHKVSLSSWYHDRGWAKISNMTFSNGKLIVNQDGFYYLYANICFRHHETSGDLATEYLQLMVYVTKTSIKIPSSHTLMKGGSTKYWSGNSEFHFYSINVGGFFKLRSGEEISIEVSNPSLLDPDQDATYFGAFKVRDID
TEST DESCRIPTION: SPR (BIAcore), immobilized OPGbp [143-317]
Entries and their koff values follow.
Write the answer as a number in s⁻¹, unit excluded.

So, “AT” Fab variant R(100a)A (heavy chain CDR3) (Fab, name in Kabat numbering, V domains shown) VH: QVQLVQSGAEVRKPGASVKVSCKASGYDFSNYAIHWVRQAPGQRLEWMGWINAGNGNTKFSQKFQGRITVTRDTAASTAYMELRSLRSEDTAVYYCARDSSNMVAGIIIAYYFDYWGQGTLVTVSS VL: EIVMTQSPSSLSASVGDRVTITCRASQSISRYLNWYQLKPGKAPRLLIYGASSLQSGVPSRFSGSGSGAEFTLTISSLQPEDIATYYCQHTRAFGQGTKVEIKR ? Its koff was 0.303

So, “AT” Fab variant S97A (heavy chain CDR3) (Fab, name in Kabat numbering, V domains shown) VH: QVQLVQSGAEVRKPGASVKVSCKASGYDFSNYAIHWVRQAPGQRLEWMGWINAGNGNTKFSQKFQGRITVTRDTAASTAYMELRSLRSEDTAVYYCARDSANMVRGIIIAYYFDYWGQGTLVTVSS VL: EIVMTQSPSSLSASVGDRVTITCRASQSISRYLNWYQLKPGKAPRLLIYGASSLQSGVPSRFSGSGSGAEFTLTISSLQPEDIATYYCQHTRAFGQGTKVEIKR ? Its koff was 0.0062

So, “AT” Fab variant S96A (heavy chain CDR3) (Fab, name in Kabat numbering, V domains shown) VH: QVQLVQSGAEVRKPGASVKVSCKASGYDFSNYAIHWVRQAPGQRLEWMGWINAGNGNTKFSQKFQGRITVTRDTAASTAYMELRSLRSEDTAVYYCARDASNMVRGIIIAYYFDYWGQGTLVTVSS VL: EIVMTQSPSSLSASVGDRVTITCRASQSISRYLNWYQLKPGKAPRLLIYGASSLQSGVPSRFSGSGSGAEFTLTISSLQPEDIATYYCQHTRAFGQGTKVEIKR ? Its koff was 0.0072
